Species on record: Rattus norvegicus
procedureDetails: Compound was tested for the selective increase in K+ stimulated AcCh release in striatum
Type: functional
Parameters: concentration or dose not given beside the values
// boundary case: Control equal to 200% maps to 0 (no); strictly smaller maps to 1 (yes)

Answered cases to consult:
[ask] Take the molecule NC(=O)Nc1ccccc1 and say whether its Control is less than 200%.
[reply] 1 (yes)

[ask] Take the molecule O=C(Nc1ccccc1)Nc1ccccc1 and say whether its Control is less than 200%.
[reply] 1 (yes)

[ask] Take the molecule NC(=O)N(c1ccccc1)c1ccccc1 and say whether its Control is less than 200%.
[reply] 1 (yes)

---
[ask] Take the molecule O=C(N(c1ccccc1)c1ccccc1)N(c1ccccc1)c1ccccn1 and say whether its Control is less than 200%.
[reply] 0 (no)

[ask] Take the molecule O=C(Nc1ccccc1)N(c1ccccc1)c1ccccc1 and say whether its Control is less than 200%.
[reply] 0 (no)

[ask] Take the molecule O=C(N(c1ccccc1)c1ccccc1)N(c1ccccc1)c1ccncc1 and say whether its Control is less than 200%.
[reply] 0 (no)

[ask] Take the molecule O=C(N(c1ccccc1)c1ccccc1)N(c1ccccc1)c1ccccc1 and say whether its Control is less than 200%.
[reply] 0 (no)

---

Organism: Rattus norvegicus
procedureDetails: Compound was tested for the selective increase in K+ stimulated AcCh release in hippocampus at 100 uM
Format: functional
Recorded Control by entry
The answer is to be given in %; state only the numeric part.

Would you please look over these solved cases?
[ask] Which Control is listed for O=C(N(c1ccccc1)c1ccccc1)N(c1ccncc1)c1ccc(Cl)c(Cl)c1 ?
[reply] 46.6

[ask] Which Control is listed for NC(=O)N(c1ccccc1)c1ccccc1 ?
[reply] 128.7

[ask] Which Control is listed for Cc1ccc(N(C(=O)N(c2ccccc2)c2ccccc2)c2ccncc2)cc1 ?
[reply] 229

[ask] Which Control is listed for O=C(N(c1ccccc1)c1ccccc1)N(c1ccccc1)c1ccccc1 ?
[reply] 420.6

[ask] Which Control is listed for O=C(N(c1ccccc1)c1ccccc1)N(c1ccncc1)c1ccc(Cl)cc1 ?
[reply] 231.4

[ask] Which Control is listed for O=C(Nc1ccccc1)Nc1ccccc1 [DIPHENYLUREA] ?
[reply] 138.6

[ask] Which Control is listed for O=C(N(c1ccccc1)c1ccccc1)N(c1ccccc1)c1ccncc1 ?
[reply] 129.8

[ask] Which Control is listed for O=C(N(c1ccccc1)c1ccncc1)N(c1ccc(F)cc1)c1ccc(F)cc1 ?
[reply] 48.9

---
[ask] Which Control is listed for O=C(Nc1ccccc1)N(c1ccccc1)c1ccccc1 ?
[reply] 151.3

[ask] Which Control is listed for O=C(N(c1ccncc1)c1ccc(Cl)c(Cl)c1)N(C1CCCCC1)C1CCCCC1 ?
[reply] 233.2

[ask] Which Control is listed for NC(=O)Nc1ccccc1 [PHENYLUREA] ?
[reply] 107.9

[ask] Which Control is listed for O=C(N(c1ccccc1)c1ccccc1)N(c1ccccc1)c1ccccn1 ?
[reply] 318.3

[ask] Which Control is listed for O=C(N(c1ccccc1)c1ccccc1)N(c1ccncc1)c1cccc(Cl)c1 ?
[reply] 9.8
